# System tested: human GLP-1 receptor (GLP-1R), expressed on CHO-K1 cells (human, UniProt P43220 24-463)
# Experiment notes: cell-based or functional assay
Numbered stars: 1 amine (or outer) side, 2 acyl side, 3 side chain; on linkers, the order of the positions; unused ones are H or OH. Square brackets hold non-standard residues; d marks the D form. Primed or numbered codes have the meaning given here. Side chains are listed from the residue outwards. Ends that are not written are not given here. * marks the point of attachment. C18 = C18 fatty acid (C16-C22 fatty acids conjugated via γGlu/8-amino-3,6-dioxaoctanoic acid spacers); C18″ = C18 fatty acid moiety (of 2OEG-γGlu-C18, K*); γGlu = O=C(O)[C@H](CCC(=O)[*:2])N[*:1]; AEEA = NCCOCCOCC(=O)O; Aib = CC(C)(N)C(=O)O; MAL = maleimide
Measured parameter: Relative % to non-lipidated peptide (%)

>>> df
                                     binder  observed
0  Y[Aib]QGTFTSDK([AEEA-AEEA-γGlu-C18″])SKYLDYMMARDFVQWLIEGGPSSGAPPPS-NH2 [Peptide No. 5-1E]        48
1  H[Aib]QGTFTSDYSKLLDYMMQRDFVQWLLEGGPSSGAPPPSC([MAL-AEEA-AEEA-γGlu-C18])-NH2 [Peptide No. 5-5A]        40
2  H[Aib]QGTFTSDYSK([AEEA-AEEA-γGlu-C18″])YLDYMMARDFVQWLIEGGPSSGAPPPS-NH2 [Peptide No. 5D]         6
3  Y[Aib]QGTFTSDYSK([AEEA-AEEA-γGlu-C18″])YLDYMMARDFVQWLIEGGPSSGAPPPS-NH2 [Peptide No. 5-1D]       129
4  H[Aib]QGTFTSDYSK([AEEA-AEEA-γGlu-C18″])LLDYMMQRDFVQWLLEGGPSSGAPPPS-NH2 [Peptide No. 5-5D]        18
5  Y[Aib]QGTFTSDYSKYLDYK([AEEA-AEEA-γGlu-C18″])MARDFVQWLIEGGPSSGAPPPS-NH2 [Peptide No. 5-1F]        52
6  Y[Aib]QGTFTSDYSK([AEEA-AEEA-γGlu-C18″])YLDYMMQRDFVQWLIEGGPSSGAPPPS-NH2 [Peptide No. 5-2D]        35
7  Y[Aib]QGTFTSDYSKYLDYMMARDFVQWLIEGGPSSGAPPPSC-NH2 (not fully specified (residue 40)) [Peptide No. 5-1A]       159
8  H[Aib]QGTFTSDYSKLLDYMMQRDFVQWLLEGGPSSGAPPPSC-NH2 [Peptide No. 5-5]       100

# credit: patent US20250296960A1
